Test: Pharmacokinetic study in mice, intravenous 1 mg/kg
Format: in vivo, C57BL/6 mice
Entry class follows C0/Cmax: low (below 600 ng/mL), medium (600 ng/mL to below 1000 ng/mL), high (1000 ng/mL or more)

// below: answered compounds
{"columns": ["chemicalStructure", "qualitativeLabel"],
 "data": [
  ["COCCNC(=O)c1ccc(-n2ccc3cc(C(=O)N4CCCCC4)cnc32)cc1", "high"],
  ["COCCNC(=O)c1ccc(-n2ccc3cc(C(=O)N4CCC(F)CC4)cnc32)cc1", "medium"],
  ["CNC(=O)c1ccc(-n2ccc3cc(C(=O)N4CCC(F)CC4)cnc32)cc1", "medium"]
]}

Ask: Band for NC(=O)c1ccc(-n2ccc3cc(C(=O)N4CCC(F)CC4)cnc32)cc1 ?
Result: medium

Ask: Band for O=C(c1cnc2c(ccn2-c2ccc(O)nc2)c1)N1CCCCC1 ?
Result: low

Ask: Band for Cc1c(C(=O)N2CCC(F)CC2)cnc2c1ccn2-c1ccc(C(N)=O)cc1 ?
Result: low

Ask: Band for CN(C)C(=O)c1ccc(-n2ccc3cc(C(=O)N4CCCCC4)cnc32)cc1 ?
Result: high

Ask: Band for NC(=O)c1ncc(-n2ccc3cc(C(=O)N4CCCCC4)cnc32)cn1 ?
Result: low
